Origin of values: patent US11873298B2

Target: SCD1 (Homo sapiens)
Construct: host or cells: S. cerevisiae ole1Δ strain (W303 pdr1Δ pdr3Δ background), plasmid pRS316 with TDH3 promoter and CYC1 terminator
Sequence (O00767 1-359): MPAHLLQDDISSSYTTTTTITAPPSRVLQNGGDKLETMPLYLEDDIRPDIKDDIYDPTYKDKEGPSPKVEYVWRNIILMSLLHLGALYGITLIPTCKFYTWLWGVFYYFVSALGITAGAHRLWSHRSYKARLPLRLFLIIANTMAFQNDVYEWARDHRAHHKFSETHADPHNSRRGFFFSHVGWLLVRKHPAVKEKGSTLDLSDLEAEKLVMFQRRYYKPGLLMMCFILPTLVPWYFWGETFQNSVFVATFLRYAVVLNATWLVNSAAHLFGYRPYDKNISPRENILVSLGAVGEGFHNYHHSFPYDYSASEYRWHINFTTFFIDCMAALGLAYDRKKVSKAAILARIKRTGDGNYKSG
Experiment: Growth inhibition of humanized yeast strain expressing SCD1 as sole desaturase
Assay type: cell-based
Conditions: humanized yeast strain expressing SCD1
pIC50: −log10 of the molar value.
Listed below: pIC50 values for each entry.
OBSERVED_PROPERTY: pIC50

[[record]]
compound = "CCOc1ccc(-c2noc(N3CCC(C(=O)N4CCO[C@H](c5ccccc5)C4)CC3)n2)cc1OC [Compound 218]"
recorded_result = "< 4.35"

[[record]]
compound = "Cc1nn(C)c2cc(-c3noc(C4CCN(C(=O)CNC(=O)c5ccccc5)C4)n3)ccc12 (stereo not shown) [Compound 209]"
recorded_result = "< 4.35"

[[record]]
compound = "CCOc1ccc(-c2noc(C3CCN(C(=O)CN4Cc5ccc(F)cc5C4=O)CC3)n2)cc1OC [Compound 177]"
recorded_result = "< 4.35"

[[record]]
compound = "Cc1nn(C)c2cc(-c3noc(C4CCN(C(=O)[C@@H]5CC(=O)N(c6ccc(C#N)cc6)C5)CC4)n3)ccc12 [Compound 308]"
recorded_result = "≤ 4.35"

[[record]]
compound = "CC(C)(C#N)C1CN(c2noc(C3CCN(C(=O)C4CC(=O)N(c5ccccc5)C4)CC3)n2)C1 (stereo not shown) [Compound 254]"
recorded_result = "< 4.35"

[[record]]
compound = "Cc1nn(C)c2cc(-c3noc(C4CCN(C(=O)CNC(=O)c5cccc(C#N)c5)CC4)n3)ccc12 [Compound 268]"
recorded_result = "≤ 4.35"

[[record]]
compound = "Cc1nn(C)c2cc(-c3noc(C4CCN(C(=O)CNC(=O)c5cccnc5)CC4)n3)ccc12 [Compound 197]"
recorded_result = "< 4.35"

[[record]]
compound = "COc1ccc(-c2noc(C3CCN(CCNC(=O)c4ccccc4)CC3)n2)cc1OC [Compound 32]"
recorded_result = "< 4.35"

[[record]]
compound = "CC(C)n1cc(-c2noc(C3CCN(C(=O)C4CC(=O)N(c5cccc(Cl)c5)C4)CC3)n2)cn1 (stereo not shown) [Compound 338]"
recorded_result = "< 4.35"

[[record]]
compound = "Cc1nn(C)c2cc(-c3noc(C4CCN(C(=O)CCC(F)(F)F)CC4)n3)ccc12 [Compound 518]"
recorded_result = "< 4.35"

[[record]]
compound = "O=C(NCC(=O)N1CCC(c2nc(-c3ccc(F)cc3)no2)CC1)c1ccccc1 [Compound 41]"
recorded_result = 4.41

[[record]]
compound = "CC(CF)n1ncc2ccc(-c3noc(C4CCN(C(=O)CC5(C)CC5)CC4)n3)cc21 (stereo not shown) [Compound 585]"
recorded_result = "< 4.35"

[[record]]
compound = "Cc1nn(C)c2cc(-c3noc(C4CCN(CC5COC(=O)C5)CC4)n3)ccc12 (stereo not shown) [Compound 567]"
recorded_result = "< 4.35"

[[record]]
compound = "COC1CCC(S(=O)(=O)N2CCC(c3nc(-c4ccc5cnn(C(C)C)c5c4)no3)CC2)CC1 (stereo not shown) [Compound 517]"
recorded_result = "< 4.35"

[[record]]
compound = "Cc1nn(C)c2cc(-c3noc(C4CCN(C(=O)C(CO)N5Cc6ccccc6C5=O)CC4)n3)ccc12 (stereo not shown) [Compound 129]"
recorded_result = "< 4.35"

[[record]]
compound = "Cc1nn(C)c2cc(-c3noc(C4CCN(C(=O)CN)CC4(F)F)n3)ccc12 (stereo not shown) [Compound 512]"
recorded_result = "< 4.35"

[[record]]
compound = "Cc1nn(C)c2cc(-c3noc(C4CCN(C(=O)CNC(=O)c5ccccn5)CC4)n3)ccc12 [Compound 153]"
recorded_result = "< 4.35"

[[record]]
compound = "O=C(NCC(=O)N1CCC(c2nc(-c3ccc4nsnc4c3)no2)CC1)c1ccccc1 [Compound 104]"
recorded_result = "< 4.35"

[[record]]
compound = "Cc1cc(N2CC(C(=O)N3CCC(c4nc(-c5ccc6c(C)nn(C)c6c5)no4)CC3)CC2=O)ccn1 (stereo not shown) [Compound 183]"
recorded_result = "< 4.35"

[[record]]
compound = "CCOc1cnc(-c2noc(C3CCN(C(=O)C4CC(=O)N(c5ccccc5)C4)CC3)n2)cc1OC (stereo not shown) [Compound 118]"
recorded_result = "< 4.35"

[[record]]
compound = "Cc1nn(C)c2cc(-c3noc(C4CCN(C(=O)[C@@H]5CC(=O)N(c6ccccc6)C5)CC4)n3)ccc12 [compound 91]"
recorded_result = "< 4.35"

[[record]]
compound = "CCOc1ccc(-c2noc(C3CCN(C(=O)[C@H]4CN(c5ccccc5)C(=O)O4)CC3)n2)cc1OC [Compound 148]"
recorded_result = "< 4.35"

[[record]]
compound = "O=C(C1CC(=O)N(c2cccc(Cl)c2)C1)N1CCC(c2nc(-c3cnn(C4COC4)c3)no2)CC1 (stereo not shown) [Compound 340]"
recorded_result = "< 4.35"

[[record]]
compound = "CCOc1ccc(-c2noc(C3CCN(C(=O)CN4Cc5c(F)cccc5C4=O)CC3)n2)cc1OC [Compound 175]"
recorded_result = "< 4.35"

[[record]]
compound = "Cc1nn(C)c2cc(-c3noc(C4CCN(C(=O)CNC(=O)c5cccc(F)c5)CC4(F)F)n3)ccc12 (stereo not shown) [Compound 602]"
recorded_result = 4.80

[[record]]
compound = "CCOC(=O)C(C)(C)n1cc2ccc(-c3noc(C4CCN(C(=O)CNC(=O)c5ccccc5)CC4)n3)cc2n1 [Compound 194]"
recorded_result = "< 4.35"

[[record]]
compound = "Cc1nn(C)c2cc(-c3noc(C4CCN(C(=O)CNC(=O)c5ccc(Cl)cc5)CC4(F)F)n3)ccc12 (stereo not shown) [Compound 554]"
recorded_result = 5.39

[[record]]
compound = "Cc1nn(C)c2cc(-c3noc(C4CCN(Cc5ccccc5)C(=O)C4)n3)ccc12 (stereo not shown) [Compound 354]"
recorded_result = "< 4.35"

[[record]]
compound = "CC(C)c1ccc(C(=O)N2CCC(c3noc(-c4cccc(F)c4)n3)CC2)cc1 [Compound 52]"
recorded_result = "< 4.35"

[[record]]
compound = "C=C(C)c1ccc(C(=O)N2CCC(c3nc(-c4ccc5cnn(C)c5c4)no3)CC2)nc1 [Compound 501]"
recorded_result = 4.92

[[record]]
compound = "COc1ccc(-c2noc(C3CCN(C(=O)c4cccc(C(C)C)c4)CC3)n2)cc1OC [Compound 167]"
recorded_result = "< 4.35"


----------
Biological target: SCD5 (Homo sapiens, UniProt Q86SK9)
Construct: host or cells: S. cerevisiae ole1Δ strain (W303 pdr1Δ pdr3Δ background), plasmid pRS316 with TDH3 promoter and CYC1 terminator
Sequence (Q86SK9 whole entry): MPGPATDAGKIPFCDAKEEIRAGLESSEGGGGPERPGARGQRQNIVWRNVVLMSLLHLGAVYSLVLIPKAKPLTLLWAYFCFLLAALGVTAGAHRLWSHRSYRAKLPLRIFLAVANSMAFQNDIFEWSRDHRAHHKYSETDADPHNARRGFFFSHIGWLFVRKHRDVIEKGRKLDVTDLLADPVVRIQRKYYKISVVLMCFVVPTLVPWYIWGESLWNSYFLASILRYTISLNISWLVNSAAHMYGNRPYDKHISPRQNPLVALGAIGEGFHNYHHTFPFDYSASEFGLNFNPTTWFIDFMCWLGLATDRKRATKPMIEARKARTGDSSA
Test: Growth inhibition of humanized yeast strain expressing SCD5 as sole desaturase
Type: cell-based
Conditions: growth inhibition of humanized yeast strain expressing human SCD5
pIC50: −log10 of the molar value.
Listed below: pIC50 values for each entry.
OBSERVED_PROPERTY: pIC50

[[record]]
compound = "Cc1nn(C)c2cc(-c3noc(C4CCN(C(=O)[C@H]5CC(=O)N(c6cccc(C#N)c6)C5)CC4(F)F)n3)ccc12 (some centres unmarked)"
observed_property = "pIC50"
value_prefix = "<"
recorded_result = 4.35

[[record]]
compound = "CC(C)N1C(=O)Cc2ccc(-c3noc(C4CCN(C(=O)CC5(C)CC5)CC4)n3)cc21"
observed_property = "pIC50"
value_prefix = "="
recorded_result = 5.56

[[record]]
compound = "CC(C)n1ncc2ccc(-c3noc(N4C[C@@H]5CN(C(=O)OC(C)(C)C)C[C@H]5C4)n3)cc21"
observed_property = "pIC50"
value_prefix = "="
recorded_result = 6.06

[[record]]
compound = "CC(C)(C)OC(=O)N1CC(c2nc(-c3ccc4cn(C5COC5)nc4c3)no2)C1"
observed_property = "pIC50"
value_prefix = "<"
recorded_result = 4.35

[[record]]
compound = "CC(=O)N1CC(CC(=O)N2CCC(c3nc(-c4ccc5c(C)nn(C)c5c4)no3)CC2)C1"
observed_property = "pIC50"
value_prefix = "<"
recorded_result = 4.35

[[record]]
compound = "Cc1nnc(N2CCC(c3nc(-c4ccc5cnn(C(C)C)c5c4)no3)CC2)o1"
observed_property = "pIC50"
value_prefix = "="
recorded_result = 5.78

[[record]]
compound = "CC(C)(C)CC(=O)N1CCC(c2nc(-c3ccc4cnn(C(=O)C5COC5)c4c3)no2)CC1"
observed_property = "pIC50"
value_prefix = "<"
recorded_result = 4.35

[[record]]
compound = "O=C(c1ccccc1)N1CCC(c2noc(-c3ccc4cnn(C5COC5)c4c3)n2)CC1"
observed_property = "pIC50"
value_prefix = "="
recorded_result = 6.74

